Cited source: ChEMBL document CHEMBL3808376

ASSAY INFO: Antiproliferative activity against mouse McCoy cells after 48 hrs by Sulforhodamine B assay
Format: cell-based
PROPERTY NAME: IC50

Reference set, count: 5
1) CC(C)(C)OC(=O)NCCCC[C@H]1N=C2C[C@H]3C[C@H](C3(C)C)[C@@]2(C)OC1=O    > 1.3 mM
2) O=C1O[C@@H]2CCc3ccccc3C2=N[C@H]1Cc1ccccc1    > 1 mM
3) O=C1O[C@H]2CCc3ccccc3C2=N[C@H]1Cc1c[nH]c2ccccc12    > 1 mM
4) CC1(C)[C@H]2CC3=N[C@H](Cc4ccccc4)C(=O)O[C@]3(C)[C@@H]1C2    > 1.5 mM
5) CC1(C)[C@@H]2CC3=NCC(=O)O[C@@]3(C)[C@H]1C2    > 0.9 mM

Would you kindly look at the next entry?
Qu. Fill blank: measured IC50 of the compound O=C1O[C@H]2CCc3ccccc3C2=N[C@H]1Cc1ccccc1 is ____.
Ans. > 1 mM

----------
Measured pIC50 by item
Tested on: MCF7
ASSAY INFO: Antiproliferative activity against human MCF7 cells after 48 hrs by Sulforhodamine B assay
Assay type: functional, cell-based
TEST PARAMETERS: MCF7, 48 h
The read-out pIC50 is expressed as -log10 of concentration in moles per litre.

Reference set, count: 5
1) CC(C)(C)OC(=O)NCCCC[C@@H]1N=C2C[C@@H]3C[C@@H](C3(C)C)[C@]2(C)OC1=O    4.77
2) O=C1O[C@H]2CCc3ccccc3C2=N[C@H]1Cc1ccccc1    4.39
3) CC(C)(C)OC(=O)CC[C@@H]1N=C2C[C@@H]3C[C@@H](C3(C)C)[C@]2(C)OC1=O    4.40
4) O=C1O[C@@H]2CCc3ccccc3C2=N[C@H]1Cc1ccccc1    4.57
5) CC1(C)N=C2C[C@H]3C[C@H](C3(C)C)[C@@]2(C)OC1=O    3.79

Qu. Fill blank: measured pIC50 of the compound O=C1O[C@@H]2CCc3ccccc3C2=N[C@H]1Cc1c[nH]c2ccccc12 is ____.
Ans. 4.60

Qu. Fill blank: measured pIC50 of the compound CC1(C)[C@H]2CC3=N[C@H](CCC(=O)O)C(=O)O[C@]3(C)[C@@H]1C2 is ____.
Ans. 4.47

Qu. Fill blank: measured pIC50 of the compound CC1(C)[C@H]2CC[C@]1(C)[C@H]1OC(=O)CN=C21 is ____.
Ans. 3.87

----------
System: MCF7
ASSAY INFO: Antiproliferative activity against human MCF7 cells after 48 hrs by Sulforhodamine B assay
Type: functional, cell-based
TEST PARAMETERS: MCF7, 48 h
Measured pIC50 by item
The read-out pIC50 is expressed as -log10 of concentration in moles per litre.

1. O=C1O[C@H]2CCc3ccccc3C2=N[C@H]1Cc1c[nH]c2ccccc12    4.41
2. C[C@H]1N=C2C[C@H]3C[C@H](C3(C)C)[C@@]2(C)OC1=O    4.42
3. CC(C)(C)OC(=O)CC[C@H]1N=C2C[C@H]3C[C@H](C3(C)C)[C@@]2(C)OC1=O    4.27
4. CC1(C)[C@@H]2CC3=N[C@@H](CCC(=O)O)C(=O)O[C@@]3(C)[C@H]1C2    4.42
5. CC(C)(C)OC(=O)NCCCC[C@H]1N=C2C[C@H]3C[C@H](C3(C)C)[C@@]2(C)OC1=O    4.82
6. CC(C)(C)OC(=O)NCCC[C@@H]1N=C2C[C@@H]3C[C@@H](C3(C)C)[C@]2(C)OC1=O    5.20

Qu. Fill blank: measured pIC50 of the molecule C[C@@H]1N=C2C[C@@H]3C[C@@H](C3(C)C)[C@]2(C)OC1=O is ____.
Ans. 3.81

Qu. Fill blank: measured pIC50 of the molecule C[C@@]12CCCC[C@H]1CC=C(O)C2=O is ____.
Ans. 3.92

----------
ASSAY INFO: Antiproliferative activity against mouse McCoy cells after 48 hrs by Sulforhodamine B assay
Assay type: cell-based
PROPERTY NAME: IC50

Reference set, count: 2
1) CC(C)(C)OC(=O)NCCCC[C@@H]1N=C2C[C@@H]3C[C@@H](C3(C)C)[C@]2(C)OC1=O    > 800 µM
2) C[C@@]12CCCC[C@H]1CC[C@@H]1OC(=O)CN=C12    > 2000 µM

Qu. Fill blank: measured IC50 of the compound CC(C)(C)OC(=O)CC[C@H]1N=C2C[C@H]3C[C@H](C3(C)C)[C@@]2(C)OC1=O is ____.
Ans. > 1200 µM

Qu. Fill blank: measured IC50 of the compound CC(C)(C)OC(=O)CC[C@@H]1N=C2C[C@@H]3C[C@@H](C3(C)C)[C@]2(C)OC1=O is ____.
Ans. > 1000 µM

----------
Test system: MCF7
ASSAY INFO: Antiproliferative activity against human MCF7 cells after 48 hrs by Sulforhodamine B assay
Assay type: functional, cell-based
TEST PARAMETERS: MCF7, 48 h
PROPERTY NAME: IC50 (µM)
Reply numerically in µM, unit not repeated.

Reference set, count: 4
1. CC(C)(C)OC(=O)NCCC[C@H]1N=C2C[C@H]3C[C@H](C3(C)C)[C@@]2(C)OC1=O    56
2. C[C@@]12CCCC[C@H]1CC[C@@H]1OC(=O)CN=C12    11
3. CC1(C)[C@H]2CC3=N[C@H](Cc4ccccc4)C(=O)O[C@]3(C)[C@@H]1C2    8.4
4. C[C@@]12CCCC[C@H]1CC[C@@H]1OC(=O)[C@H](Cc3ccccc3)N=C12    53

Would you kindly look at the next entry?
Qu. Fill blank: measured IC50 of the compound C[C@H]1N=C2[C@H](CC[C@@H]3CCCC[C@@]23C)OC1=O is ____.
Ans. 57

----------
ASSAY INFO: Antiproliferative activity against mouse McCoy cells after 48 hrs by Sulforhodamine B assay
Type: cell-based
PROPERTY NAME: IC50

Qu. Fill blank: measured IC50 of the compound C[C@@]12CCCC[C@H]1CC[C@@H]1OC(=O)[C@@H](Cc3ccccc3)N=C12 is ____.
Ans. > 1200 µM

Qu. Fill blank: measured IC50 of the compound CC1(C)[C@H]2CC[C@]1(C)[C@H]1OC(=O)CN=C21 is ____.
Ans. > 900 µM

Qu. Fill blank: measured IC50 of the compound O=C1O[C@@H]2CCc3ccccc3C2=N[C@H]1Cc1c[nH]c2ccccc12 is ____.
Ans. > 1000 µM

Qu. Fill blank: measured IC50 of the compound CC(C)(C)OC(=O)n1cnc(C[C@H]2N=C3C[C@H]4C[C@H](C4(C)C)[C@@]3(C)OC2=O)c1 is ____.
Ans. > 1300 µM

----------
Tested on: MCF7
ASSAY INFO: Antiproliferative activity against human MCF7 cells after 48 hrs by Sulforhodamine B assay
Format: functional, cell-based
TEST PARAMETERS: MCF7, 48 h
PROPERTY NAME: pIC50
The read-out pIC50 is expressed as -log10 of concentration in moles per litre.

Reference set, count: 3
1) CC1(C)[C@@H]2CC3=NCC(=O)O[C@@]3(C)[C@H]1C2    4.66
2) C[C@@]12CCCC[C@H]1CC[C@@H]1OC(=O)[C@H](Cc3c[nH]c4ccccc34)N=C12    4.11
3) C[C@@]12CCCC[C@H]1CC[C@@H]1OC(=O)[C@@H](Cc3ccccc3)N=C12    4.92

Qu. Fill blank: measured pIC50 of the molecule CC(C)(C)OC(=O)n1cnc(C[C@H]2N=C3C[C@H]4C[C@H](C4(C)C)[C@@]3(C)OC2=O)c1 is ____.
Ans. 3.85

----------
Measured pIC50 by item
ASSAY INFO: Antiproliferative activity against mouse McCoy cells after 48 hrs by Sulforhodamine B assay
Type: cell-based
pIC50: −log10 of the molar value.

Qu. Fill blank: measured pIC50 of the compound CC1(C)[C@@H]2CC3=N[C@@H](Cc4ccccc4)C(=O)O[C@@]3(C)[C@H]1C2 is ____.
Ans. < 3.00

Qu. Fill blank: measured pIC50 of the compound C[C@@]12CCCC[C@H]1CC[C@@H]1OC(=O)[C@H](Cc3c[nH]c4ccccc34)N=C12 is ____.
Ans. < 2.82

Qu. Fill blank: measured pIC50 of the compound CC1(C)N=C2C[C@H]3C[C@H](C3(C)C)[C@@]2(C)OC1=O is ____.
Ans. < 2.70

Qu. Fill blank: measured pIC50 of the compound C[C@H]1N=C2[C@H](CC[C@@H]3CCCC[C@@]23C)OC1=O is ____.
Ans. < 2.70

----------
ASSAY INFO: Antiproliferative activity against mouse McCoy cells after 48 hrs by Sulforhodamine B assay
Assay type: cell-based
PROPERTY NAME: IC50

Reference set, count: 3
1. CC(C)(C)OC(=O)NCCC[C@H]1N=C2C[C@H]3C[C@H](C3(C)C)[C@@]2(C)OC1=O    > 1.5 mM
2. C[C@@H]1N=C2C[C@@H]3C[C@@H](C3(C)C)[C@]2(C)OC1=O    > 2 mM
3. C[C@@]12CCCC[C@H]1CC=C(O)C2=O    > 2 mM

Qu. Fill blank: measured IC50 of the molecule CC(C)(C)OC(=O)NCCC[C@@H]1N=C2C[C@@H]3C[C@@H](C3(C)C)[C@]2(C)OC1=O is ____.
Ans. > 1.2 mM
